- Assay Name: Henry solubility constant Hcp at 293 K (mol/(m3 Pa))
- Experimental Context: reference: Murphy et al. (1987)
Binary classification by Henry solubility constant Hcp at 293 K, with 0.08 as an inclusive lower bound for true (1); all other cases are false (0).

Solved entries:
Clc1ccccc1-c1cc(Cl)c(Cl)c(Cl)c1 [2,3',4',5'-tetrachlorobiphenyl]; false (0)
Clc1cc(Cl)c(Cl)c(-c2ccc(Cl)c(Cl)c2Cl)c1 [2,2',3,3',4,5'-hexachlorobiphenyl]; true (1)

Given the entry Clc1cccc(-c2c(Cl)cc(Cl)c(Cl)c2Cl)c1Cl [2,2',3,3',4,6-hexachlorobiphenyl] , answer whether its Henry solubility constant Hcp at 293 K meets or surpasses 0.08.
true (1)

Given the entry Clc1ccc(-c2ccccc2Cl)cc1Cl [2,3',4'-trichlorobiphenyl] , answer whether its Henry solubility constant Hcp at 293 K meets or surpasses 0.08.
false (0)

Given the entry Clc1cccc(-c2c(Cl)ccc(Cl)c2Cl)c1Cl [2,2',3,3',6-pentachlorobiphenyl] , answer whether its Henry solubility constant Hcp at 293 K meets or surpasses 0.08.
false (0)

Given the entry Clc1ccc(-c2ccc(Cl)c(Cl)c2Cl)cc1 [2,3,4,4'-tetrachlorobiphenyl] , answer whether its Henry solubility constant Hcp at 293 K meets or surpasses 0.08.
false (0)

Given the entry Clc1cc(Cl)c(-c2c(Cl)ccc(Cl)c2Cl)cc1Cl [2,2',3,4',5',6-hexachlorobiphenyl] , answer whether its Henry solubility constant Hcp at 293 K meets or surpasses 0.08.
false (0)

Given the entry Clc1ccc(-c2cc(Cl)c(Cl)c(Cl)c2Cl)c(Cl)c1 [2,2',3,4,4',5-hexachlorobiphenyl] , answer whether its Henry solubility constant Hcp at 293 K meets or surpasses 0.08.
true (1)

Given the entry Clc1cccc(-c2ccccc2Cl)c1 [2,3'-dichlorobiphenyl] , answer whether its Henry solubility constant Hcp at 293 K meets or surpasses 0.08.
false (0)

Given the entry Clc1cc(Cl)c(Cl)c(-c2ccc(Cl)c(Cl)c2)c1 [2,3,3',4',5-pentachlorobiphenyl] , answer whether its Henry solubility constant Hcp at 293 K meets or surpasses 0.08.
true (1)

Given the entry Clc1ccc(Cl)c(-c2cc(Cl)c(Cl)cc2Cl)c1 [2,2',4,5,5'-pentachlorobiphenyl] , answer whether its Henry solubility constant Hcp at 293 K meets or surpasses 0.08.
false (0)

Given the entry Clc1cc(-c2cccc(Cl)c2Cl)cc(Cl)c1Cl [2,3,3',4',5'-pentachlorobiphenyl] , answer whether its Henry solubility constant Hcp at 293 K meets or surpasses 0.08.
true (1)

Given the entry Clc1ccc(-c2ccccc2Cl)cc1 [2,4'-dichlorobiphenyl] , answer whether its Henry solubility constant Hcp at 293 K meets or surpasses 0.08.
false (0)

Given the entry Clc1ccc(-c2ccc(Cl)c(Cl)c2)cc1 [3,4,4'-trichlorobiphenyl] , answer whether its Henry solubility constant Hcp at 293 K meets or surpasses 0.08.
false (0)

Given the entry Clc1ccc(-c2cc(Cl)ccc2Cl)c(Cl)c1 [2,2',4,5'-tetrachlorobiphenyl] , answer whether its Henry solubility constant Hcp at 293 K meets or surpasses 0.08.
false (0)

Given the entry Clc1ccc(Cl)c(-c2c(Cl)cc(Cl)c(Cl)c2Cl)c1 [2,2',3,4,5',6-hexachlorobiphenyl] , answer whether its Henry solubility constant Hcp at 293 K meets or surpasses 0.08.
false (0)

Given the entry Clc1ccc(Cl)c(-c2cc(Cl)c(Cl)c(Cl)c2)c1 [2,3',4',5,5'-pentachlorobiphenyl] , answer whether its Henry solubility constant Hcp at 293 K meets or surpasses 0.08.
true (1)

Given the entry Clc1ccc(-c2c(Cl)ccc(Cl)c2Cl)cc1Cl [2,3,3',4',6-pentachlorobiphenyl] , answer whether its Henry solubility constant Hcp at 293 K meets or surpasses 0.08.
true (1)

Given the entry Clc1ccc(-c2ccccc2Cl)c(Cl)c1 [2,2',4-trichlorobiphenyl] , answer whether its Henry solubility constant Hcp at 293 K meets or surpasses 0.08.
false (0)

Given the entry Clc1ccc(-c2ccccc2)c(Cl)c1 [2,4-dichlorobiphenyl] , answer whether its Henry solubility constant Hcp at 293 K meets or surpasses 0.08.
false (0)

Given the entry Clc1cc(Cl)c(-c2c(Cl)c(Cl)cc(Cl)c2Cl)cc1Cl [2,2',3,4',5,5',6-heptachlorobiphenyl] , answer whether its Henry solubility constant Hcp at 293 K meets or surpasses 0.08.
true (1)

Given the entry Clc1ccc(-c2cccc(Cl)c2Cl)cc1Cl [2,3,3',4'-tetrachlorobiphenyl] , answer whether its Henry solubility constant Hcp at 293 K meets or surpasses 0.08.
false (0)

Given the entry Clc1ccc(-c2c(Cl)ccc(Cl)c2Cl)cc1 [2,3,4',6-tetrachlorobiphenyl] , answer whether its Henry solubility constant Hcp at 293 K meets or surpasses 0.08.
false (0)

Given the entry Clc1cccc(-c2ccc(Cl)c(Cl)c2Cl)c1Cl [2,2',3,3',4-pentachlorobiphenyl] , answer whether its Henry solubility constant Hcp at 293 K meets or surpasses 0.08.
true (1)
